# Tested on: 299254-011-R-J1-PDC complex spheroids viability
# TEST: Anticancer human tumor 299254-011-R-J1-PDC patient-derived melanoma cell line growth inhibition [GQUAD]
# RECORDED_CONDITIONS: second compound 10 µM; first compound 0.1 µM; active compounds read low
The label is TRUE for viability, T/C below 90% and FALSE for viability, T/C equal to or exceeding 90%.

compound="CCCS(=O)(=O)Nc1ccc(F)c(C(=O)c2c[nH]c3ncc(-c4ccc(Cl)cc4)cc23)c1F + CN(C)c1ccc(Nc2c3ccc(NC(=O)CCN4CCCC4)cc3nc3cc(NC(=O)CCN4CCCC4)ccc23)cc1" study_system="299254-011-R-J1-PDC complex spheroids viability" discrete_label=FALSE

Find out if reported viability, T/C for C=CCn1c(=O)c2cnc(Nc3ccc(N4CCN(C)CC4)cc3)nc2n1-c1cccc(C(C)(C)O)n1 + Cc1[nH]c2ccc(F)cc2c1-c1nc2c3cccnc3c3ncccc3c2[nH]1 is less than 90%
TRUE

Find out if reported viability, T/C for COc1cccc2c1C(=O)c1c(O)c3c(c(O)c1C2=O)CC(O)(C(=O)CO)CC3OC1CC(N)C(O)C(C)O1 (stereo unspecified) + CN(C)c1ccc(Nc2c3ccc(NC(=O)CCN4CCCC4)cc3nc3cc(NC(=O)CCN4CCCC4)ccc23)cc1 is less than 90%
FALSE

Find out if reported viability, T/C for COc1ccc([C@@H](O)c2cc(-c3ncnc4cc(N5CCOCC5)ccc34)c(F)cc2Cl)nn1 + Cc1[nH]c2ccc(F)cc2c1-c1nc2c3cccnc3c3ncccc3c2[nH]1 is less than 90%
FALSE

Find out if reported viability, T/C for CCCS(=O)(=O)Nc1ccc(F)c(C(=O)c2c[nH]c3ncc(-c4ccc(Cl)cc4)cc23)c1F + Cc1cnc(CNC(=O)c2c(=O)c3ccc(N4CCCN(C)CC4)nc3n3c2sc2ccccc23)cn1 is less than 90%
TRUE

Find out if reported viability, T/C for COc1ccc([C@@H](O)c2cc(-c3ncnc4cc(N5CCOCC5)ccc34)c(F)cc2Cl)nn1 + CN(C)c1ccc(Nc2c3ccc(NC(=O)CCN4CCCC4)cc3nc3cc(NC(=O)CCN4CCCC4)ccc23)cc1 is less than 90%
FALSE

Find out if reported viability, T/C for CC(C)n1c(=O)n(C)c2cnc3cc(F)c(-c4ccc(OCCCN5CCCCC5)nc4)cc3c21 + Cc1[nH]c2ccc(F)cc2c1-c1nc2c3cccnc3c3ncccc3c2[nH]1 is less than 90%
FALSE

Find out if reported viability, T/C for COc1cc(C2c3cc4c(cc3C(OC3OC5COC(C)OC5C(O)C3O)C3COC(=O)C23)OCO4)cc(OC)c1O (stereo unspecified) + Cc1cnc(CNC(=O)c2c(=O)c3ccc(N4CCCN(C)CC4)nc3n3c2sc2ccccc23)cn1 is less than 90%
TRUE

Find out if reported viability, T/C for CC1COCCN1c1cc(-c2ccnn2C)c2ccnc(-c3ccn[nH]3)c2n1 (stereo unspecified) + CN(C)c1ccc(Nc2c3ccc(NC(=O)CCN4CCCC4)cc3nc3cc(NC(=O)CCN4CCCC4)ccc23)cc1 is less than 90%
TRUE

Find out if reported viability, T/C for Cc1cccc(N(C)C(=O)C2C(O)CCN2c2nc(C)cc(C(F)(F)F)c2C#N)c1 (stereo unspecified) + Cc1cnc(CNC(=O)c2c(=O)c3ccc(N4CCCN(C)CC4)nc3n3c2sc2ccccc23)cn1 is less than 90%
TRUE

----------
# System: 299254-011-R-J1-PDC complex spheroids viability
# TEST: Anticancer human tumor 299254-011-R-J1-PDC cell line growth inhibition [GQUAD];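 further: spheroids exposed to the agents for seven days before readout; percent viability relative to DMSO vehicle control wells = 100%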
# RECORDED_CONDITIONS: second compound 0.316 µM; first compound 0.0316 µM; active compounds read low
METRIC_NAME: viability, T/C (%)
Your answer should be a plain number; it is taken to be in %.

Example entries begin here.
compound="CC(=O)O[C@H]1C(=O)[C@@]2(C)[C@H]([C@H](OC(=O)c3ccccc3)[C@]3(O)C[C@H](OC(=O)[C@H](O)[C@@H](NC(=O)c4ccccc4)c4ccccc4)C(C)=C1C3(C)C)[C@]1(OC(C)=O)CO[C@@H]1C[C@@H]2O + Cc1[nH]c2ccc(F)cc2c1-c1nc2c3cccnc3c3ncccc3c2[nH]1" endpoint_unit=% measured_result=104
compound="CCc1c2c(nc3ccc(O)cc13)-c1cc3c(c(=O)n1C2)COC(=O)[C@]3(O)CC + CN(C)c1ccc(Nc2c3ccc(NC(=O)CCN4CCCC4)cc3nc3cc(NC(=O)CCN4CCCC4)ccc23)cc1" endpoint_unit=% measured_result=89.1
compound="Cc1[nH]c2ccccc2c1CCNCc1ccc(/C=C/C(=O)NO)cc1 + Cc1[nH]c2ccc(F)cc2c1-c1nc2c3cccnc3c3ncccc3c2[nH]1" endpoint_unit=% measured_result=77.6
compound="COc1cccc2c1C(=O)c1c(O)c3c(c(O)c1C2=O)CC(O)(C(=O)CO)CC3OC1CC(N)C(O)C(C)O1 (stereo not given) + CN(C)c1ccc(Nc2c3ccc(NC(=O)CCN4CCCC4)cc3nc3cc(NC(=O)CCN4CCCC4)ccc23)cc1" endpoint_unit=% measured_result=112

Request: viability, T/C, test system 299254-011-R-J1-PDC complex spheroids viability, entry C=CC(=O)N1CCN(c2nc(=O)n(-c3c(C)ccnc3C(C)C)c3nc(-c4c(O)cccc4F)c(F)cc23)C(C)C1 (stereo not given) + CN(C)c1ccc(Nc2c3ccc(NC(=O)CCN4CCCC4)cc3nc3cc(NC(=O)CCN4CCCC4)ccc23)cc1
76.2

----------
viability, T/C listing for selected compounds.
# Test system: 299254-011-R-J1-PDC complex spheroids viability
# TEST: Anticancer human tumor 299254-011-R-J1-PDC cell line growth inhibition [GQUAD];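 further: spheroids exposed to the agents for seven days before readout; percent viability relative to DMSO vehicle control wells = 100%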
# RECORDED_CONDITIONS: second compound 3.16 µM; first compound 0.1 µM; active compounds read low

Example entries begin here.
compound="CC(C)(O)C1CCC(Nc2ccc3ncc(-c4cccc(C(F)(F)F)c4)n3n2)CC1 (stereo not given) + CN(C)c1ccc(Nc2c3ccc(NC(=O)CCN4CCCC4)cc3nc3cc(NC(=O)CCN4CCCC4)ccc23)cc1" measured_result=93.9%
compound="COc1ccc([C@@H](O)c2cc(-c3ncnc4cc(N5CCOCC5)ccc34)c(F)cc2Cl)nn1 + Cc1cnc(CNC(=O)c2c(=O)c3ccc(N4CCCN(C)CC4)nc3n3c2sc2ccccc23)cn1" measured_result=63.1%

Entry C#Cc1c(F)ccc2cc(O)cc(-c3ncc4c(N5CC6CCC(C5)N6)nc(OCC56CCCN5CC(F)C6)nc4c3F)c12 (stereo not given) + CN(C)c1ccc(Nc2c3ccc(NC(=O)CCN4CCCC4)cc3nc3cc(NC(=O)CCN4CCCC4)ccc23)cc1 has what viability, T/C?
123%

Entry COc1cc(C2c3cc4c(cc3C(OC3OC5COC(C)OC5C(O)C3O)C3COC(=O)C23)OCO4)cc(OC)c1O (stereo not given) + Cc1cnc(CNC(=O)c2c(=O)c3ccc(N4CCCN(C)CC4)nc3n3c2sc2ccccc23)cn1 has what viability, T/C?
79.5%

Entry CC(=O)O[C@H]1C(=O)[C@@]2(C)[C@H]([C@H](OC(=O)c3ccccc3)[C@]3(O)C[C@H](OC(=O)[C@H](O)[C@@H](NC(=O)c4ccccc4)c4ccccc4)C(C)=C1C3(C)C)[C@]1(OC(C)=O)CO[C@@H]1C[C@@H]2O + Cc1cnc(CNC(=O)c2c(=O)c3ccc(N4CCCN(C)CC4)nc3n3c2sc2ccccc23)cn1 has what viability, T/C?
58%

Entry Cc1cccc(N(C)C(=O)C2C(O)CCN2c2nc(C)cc(C(F)(F)F)c2C#N)c1 (stereo not given) + Cc1[nH]c2ccc(F)cc2c1-c1nc2c3cccnc3c3ncccc3c2[nH]1 has what viability, T/C?
122%

Entry C=CCn1c(=O)c2cnc(Nc3ccc(N4CCN(C)CC4)cc3)nc2n1-c1cccc(C(C)(C)O)n1 + CN(C)c1ccc(Nc2c3ccc(NC(=O)CCN4CCCC4)cc3nc3cc(NC(=O)CCN4CCCC4)ccc23)cc1 has what viability, T/C?
94.5%

Entry CC1COCCN1c1cc(-c2ccnn2C)c2ccnc(-c3ccn[nH]3)c2n1 (stereo not given) + Cc1cnc(CNC(=O)c2c(=O)c3ccc(N4CCCN(C)CC4)nc3n3c2sc2ccccc23)cn1 has what viability, T/C?
26.2%

Entry CC1COCCN1c1cc(-c2ccnn2C)c2ccnc(-c3ccn[nH]3)c2n1 (stereo not given) + CN(C)c1ccc(Nc2c3ccc(NC(=O)CCN4CCCC4)cc3nc3cc(NC(=O)CCN4CCCC4)ccc23)cc1 has what viability, T/C?
73.7%

Entry O=C(c1cc(Cc2n[nH]c(=O)c3ccccc23)ccc1F)N1CCN(C(=O)C2CC2)CC1 + Cc1cnc(CNC(=O)c2c(=O)c3ccc(N4CCCN(C)CC4)nc3n3c2sc2ccccc23)cn1 has what viability, T/C?
91.5%
